experiment-summary: small-molecule microarray binders of probe aCHRDL2, primary screen, biochemical, biotinylated probe, 635/667 nm fluorescence (AID 1100)
details: higher = more signal
Classify by measured composite z-score: 1 if it is equal to or exceeds 0.9, 0 if it is smaller.

Check out these entries, answers already filled in.
compound=COc1ccc(C#Cc2ccc3c(c2)[C@]2(C(=O)N3)[C@H](c3ccccc3OCCO)N3[C@H](c4ccccc4)[C@H](c4ccccc4)OC(=O)[C@H]3[C@@H]2C(=O)O)cc1 qualitative_label=0
compound=COc1ccc([C@H]2OC[C@@H]3CC4(CC=CC4)C(=O)N32)cc1 qualitative_label=0
compound=[N-]=[N+]=NCc1ccccc1C[C@]1(C(=O)N2CCOCC2)N=C(c2ccc(OCCCO)cc2)O[C@H]1c1ccccc1N=[N+]=[N-] qualitative_label=1

As a next step, examine the compound that follows.
Decide: composite z-score of CCOC(=O)[C@H]1CC=C2CC1C(=O)N1CCC[C@@H]1[C@@H]2O[Si](C)(C)C(C)(C)C (some centres not stated) >= 0.9?
0

---

experiment-summary: yeast growth modulation, basal conditions, primary screen, YJM789 clinical isolate, OD600, 24 h (AID 1089);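 further: growth of clinical yeast isolate S. cerevisiae YJM 789 seeded 1000 cells per well; test concentration not given here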
details: S. cerevisiae YJM789 growth, higher = more signal, called active from +8 up or from −8 down
z-score values, listed per item
Reply with just the number.

Recorded results for 5 molecules are shown here.
molecule=C=CCNC(=O)[C@H]1[C@@H]2C(=O)O[C@@H](c3ccccc3)[C@@H](c3ccccc3)N2[C@@H](c2ccc(O)cc2)[C@]12C(=O)N(C(=O)OCCOC)c1ccc(C#CCNC(N)=O)cc12 experimental_result=0.905
molecule=COC(=O)[C@@]1(Cc2ccc(OC)cc2)[C@H]2c3cc(C(=O)N(C)C)n(Cc4cccc5ccccc45)c3C[C@H]2CN1C(=O)c1ccccc1 experimental_result=-0.386
molecule="CN1C(=O)C2C=CC(C(O)c3ccc(-c4ccccc4)s3)N(N(c3ccccc3)c3ccccc3)C2C1=O (configuration not stated)" experimental_result=0.187
molecule=CCOC(=O)C[C@H]1[C@H](OC(=O)c2cc3ccccc3oc2=O)[C@@H](NC(=O)C2CCCCC2)c2cc(OCCCO)ccc2N1C(=O)c1ccccc1 experimental_result=-0.415
molecule=COCCOC(=O)N1C(=O)[C@@]2(c3cc(C#Cc4ccc(OC)cc4)ccc31)[C@H](C(N)=O)[C@H]1C(=O)O[C@H](c3ccccc3)[C@H](c3ccccc3)N1[C@@H]2c1ccccc1OCCO experimental_result=1.05

Looking up O=C1NC(=O)C2C1C=CC(C(O)Cc1ccccc1)N2Nc1ccc(Cl)cc1Cl (configuration not stated) , I found its z-score recorded as -4.33

Looking up CN(C)CCCNC(=O)[C@@]1(c2ccc([N+](=O)[O-])cc2)CC(=O)N(C2CCCCC2)[C@@H]1c1ccc(CO)cc1I , I found its z-score recorded as -1.13

---

experiment-summary: binders of probe aHhip on microarray, primary screen, stem cell growth factor project, biochemical, small-molecule microarray, fluorescence 635/667 (AID 1087);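 further: score merges spot fluorescence at 667nm with spot signal to noise ratio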
details: higher = more signal
Classify by measured composite z-score: Satisfied if it is equal to or exceeds -0.1, Not satisfied if it is smaller.

Check out these entries, answers already filled in.
compound=CCOC(=O)[C@H]1C/C=C/C[C@H](C(=O)OCC)C(=O)O[C@H]2[C@@H](OC)O[C@H](CO)[C@@H](OC(=O)Nc3cccc(F)c3)[C@@H]2OC1=O qualitative_label="Not satisfied"
compound="O=C1OCCC/C=C\\[C@H]2OC34C=CCN(Cc5ccccc5)C(=O)[C@H]3N(CCCCCCO)C(=O)[C@@H]4C12 (some centres not stated)" qualitative_label=Satisfied
compound=COC(=O)C(CC#Cc1ccc2c(c1)[C@]1(C(=O)N2)[C@H](C(=O)O)[C@H]2C(=O)O[C@H](c3ccccc3)[C@H](c3ccccc3)N2[C@@H]1c1ccc(O)cc1)C(=O)OC qualitative_label="Not satisfied"
compound=COC(=O)[C@@]1(Cc2ccccc2)[C@H]2c3cc(C(=O)N4CCCC4)n(Cc4cccc5ccccc45)c3C[C@H]2CN1C(=O)c1ccccc1 qualitative_label=Satisfied
compound="N#Cc1ccc(NN2C(C(O)c3c(F)cccc3Cl)C=CC3C(=O)N(c4ccccc4)C(=O)C32)cc1 (configuration not stated)" qualitative_label=Satisfied

As a next step, examine the compound that follows.
Decide: composite z-score of C=CC[C@]1(C(=O)NCCCOC)N=C(c2ccc(OCCCO)cc2)O[C@H]1c1ccccc1N=[N+]=[N-] >= -0.1?
Not satisfied
